Origin of values: PubChem BioAssay (NCI)

Test system: MCF7 breast
TEST SUMMARY: NCI tumour cell line growth inhibition, 48 h
Each entry below lists one item and its recorded GI50 value.

[[record]]
compound = "Cc1c(C)c2c(c(C)c1NC(=O)/C=C\\C(=O)O)CCC(C)(CCCC(C)CCCC(C)CCCC(C)C)O2 (stereo not drawn)"
test_result = "2.2 µM"

[[record]]
compound = "COc1ccc(-c2nn(-c3ccc(NC(=O)c4ccc(Cl)c(C(F)(F)F)c4)cc3)cc2-c2ccncc2)cc1Cl"
test_result = "1.59 µM"

[[record]]
compound = "COc1ccc2c(c1)[C@]1(C[C@H]1c1ccc3c(/C=C/c4ccc(CN5C[C@@H](C)O[C@@H](C)C5)cc4)n[nH]c3c1)C(=O)N2"
test_result = "1.59 µM"

[[record]]
compound = "COc1ccc(C[n+]2c3ccccc3n3c4ccc(N)cc4ccc32)c(OC)c1OC"
test_result = "1.11 µM"

[[record]]
compound = "COc1cccc(C(=O)Nc2ccc(CN3CCc4nc5cc(OC)c(OC)cc5cc43)cc2)c1"
test_result = "3.19 µM"

[[record]]
compound = "COc1cc(/C=N/Nc2ncnc3c2cnn3C(C)C)ccc1O"
test_result = "4.68 µM"


Looking for the measured GI50 of `CC(=O)Nc1ccc(-c2c3nc(c(-c4cc5ccccc5[n+](C)c4)c4ccc([nH]4)c(-c4ccc(NC(C)=O)cc4)c4nc(c(-c5cc6ccccc6[n+](C)c5)c5ccc2[nH]5)C=C4)C=C3)cc1` , can you help?
34.3 µM

Requested field: GI50. Item: `CC1=CC[C@@H]2C(C)(C)C(=O)CC[C@@]2(C)[C@@H]1COc1ccc2ccc(=O)oc2c1`
12.4 µM
